Taken from patent US7632870B2.

// reported Induction factor (luminescent signal relative to untreated cells) per item
- Target: PPARα (Homo sapiens)
- Construct: expressed in transfected cells; host or cells: RK13 cells
- Sequence (Q07869 239-466 limits assumed): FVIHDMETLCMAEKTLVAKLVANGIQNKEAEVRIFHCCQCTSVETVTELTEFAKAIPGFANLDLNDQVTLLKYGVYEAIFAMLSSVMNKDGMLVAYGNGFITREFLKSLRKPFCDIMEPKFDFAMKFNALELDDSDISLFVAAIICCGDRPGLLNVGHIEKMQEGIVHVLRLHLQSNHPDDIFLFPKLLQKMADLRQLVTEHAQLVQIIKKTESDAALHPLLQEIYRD
- Assay name: PPARα/Gal4 transactivation system in RK13 cells (luciferase reporter)
- Type: cell-based, rabbit
- Experimental context: 10 μM, 24 hours
Reported endpoint: Induction factor (luminescent signal relative to untreated cells)

CC(C)(Oc1ccc(C(=O)/C=C/c2cc(Br)c(O)c(Br)c2)c(O)c1)C(=O)O; 0.62
COc1cc(Cl)ccc1C(=O)/C=C/c1cc(C)c(OC(C)(C)C(=O)O)c(C)c1; 27
Cc1cc(/C=C/C(=O)c2ccccc2O)cc(C)c1OC(C)(C)C(=O)O; 1.39
Cc1cc(/C=C/C(=O)c2ccc(Br)cc2)cc(C)c1OC(C)(C)C(=O)O; 31
Cc1cc(/C=C/C(=O)c2ccc(Cl)cc2O)cc(C)c1OC(C)(C)C(=O)O; 36.48
CCCCCCCc1ccc(C(=O)/C=C/c2cc(C)c(OC(C)(C)C(=O)OC(C)(C)C)c(C)c2)cc1; 22
Cc1cc(/C=C/C(=O)c2ccc(Br)cc2O)cc(C)c1OC(C)(C)C(=O)O; 21.03
CC(C)(Oc1ccc(/C=C/C(=O)c2ccccc2O)cc1)C(=O)O; 4

###

- Target: PPARα (Homo sapiens, UniProt Q07869)
- Construct: expressed in transfected cells; host or cells: RK13 cells
- Assay name: PPARα/Gal4 transactivation system in RK13 cells (luciferase reporter)
- Assay type: cell-based, rabbit
- Experimental context: 1 μM, 24 hours
Reported endpoint: Induction factor (luminescent signal relative to untreated cells)

Cc1cc(/C=C/C(=O)c2ccc(Br)cc2)cc(C)c1OC(C)(C)C(=O)O; 34.61
COc1ccccc1C(=O)/C=C/c1cc(C)c(OC(C)(C)C(=O)O)c(C)c1; 3.77
Cc1cc(/C=C/C(=O)c2ccc(Br)cc2O)cc(C)c1OC(C)(C)C(=O)O; 13.48
Cc1cc(/C=C/C(=O)c2ccc(Cl)cc2)cc(C)c1OC(C)(C)C(=O)O; 79.76
CCCCCCCc1ccc(C(=O)/C=C/c2cc(C)c(OC(C)(C)C(=O)OC(C)(C)C)c(C)c2)cc1; 14.70
Cc1cc(/C=C/C(=O)c2ccccc2O)cc(C)c1OC(C)(C)C(=O)O; 1.20
COc1cc(Cl)ccc1C(=O)/C=C/c1cc(C)c(OC(C)(C)C(=O)O)c(C)c1; 24.55

###

- Target: PPARα (Homo sapiens, UniProt Q07869)
- Construct: expressed in transfected cells; host or cells: RK13 cells
- Assay name: PPARα/Gal4 transactivation system in RK13 cells (luciferase reporter)
- Assay type: cell-based, rabbit
- Experimental context: 100 μM, 24 hours
The following molecules are shown together with reported Induction factor (luminescent signal relative to untreated cells) values.
Reported endpoint: Induction factor (luminescent signal relative to untreated cells)

Cc1cc(/C=C/C(=O)c2ccc(Br)cc2)cc(C)c1OC(C)(C)C(=O)O [Compound 41]; 3.39
COc1ccccc1C(=O)/C=C/c1cc(C)c(OC(C)(C)C(=O)O)c(C)c1 [Compound 31]; 1.21
COc1cc(Cl)ccc1C(=O)/C=C/c1cc(C)c(OC(C)(C)C(=O)O)c(C)c1 [Compound 37]; 0.02
CC(C)(Oc1ccc(/C=C/C(=O)c2ccccc2O)cc1)C(=O)O [Compound 4]; 60
CCCCCCCc1ccc(C(=O)/C=C/c2cc(C)c(OC(C)(C)C(=O)OC(C)(C)C)c(C)c2)cc1 [Compound 38]; 0.311
Cc1cc(/C=C/C(=O)c2ccc(Br)cc2O)cc(C)c1OC(C)(C)C(=O)O [Compound 25]; 7.01
CC(C)(Oc1ccc(C(=O)/C=C/c2cc(Br)c(O)c(Br)c2)c(O)c1)C(=O)O [Compound 8]; 10
